Values compiled from the supplement of paper PMC9262897.

# System: E. coli TESEC Mtb Asd
# Test method notes: growth (OD600 after 10 h); higher = more growth (less inhibition)
# Setup conditions: arabinose induction (level): High; compound 0.1 mM; raw OD600 reference: median of DMSO wells 0.331, cell-free background 0.041
Structures can show the parent of a compound that is named as a salt.
Measured endpoint: growth
Quick one: just the number, no unit, thanks!

Compound	growth
CN(C)CCC[C@@]1(c2ccc(F)cc2)OCc2cc(C#N)ccc21 [Escitalopram oxalate]	0.297
CC(C)(S)C(N)C(=O)O (racemic)	0.307
CN1CCC(=C2c3ccccc3C=Cc3ccccc32)CC1 [Cyproheptadine hydrochloride]	0.15

Sample `Cc1cn([C@H]2C[C@H](N=[N+]=[N-])[C@@H](CO)O2)c(=O)[nH]c1=O` , system: E. coli TESEC Mtb Asd. Its growth is 0.1

Sample C[C@@H](O[C@H]1OCCN(Cc2n[nH]c(=O)[nH]2)[C@H]1c1ccc(F)cc1)c1cc(C(F)(F)F)cc(C(F)(F)F)c1 [Aprepitant] , system: E. coli TESEC Mtb Asd. Its growth is 0.0693
